Hello, the source for this data is PubChem BioAssay (NCI), in case you need it.

System: LOX IMVI melanoma
Protocol description: NCI-60 one-dose screen, 48 h (100 = growth as untreated, 0 = no growth, -100 = all killed)
Experimental conditions: 10 µM unless noted
The panel holds about 83,000 compounds, 20% with a hit somewhere; the sample as a whole holds those more often.
The entries below are paired with their reported growth.
Express it in %; write the number only.

INSERT INTO assay_data (molecule, test_value) VALUES
  ('CC(C)C1CCC(C)C(C2(C#N)C(N)=NC(N)=C2C#N)C1=O (stereo unspecified)', 92.5),
  ('CN1CCN(c2nc(C3=C(c4c[nH]c5ccccc45)C(=O)NC3=O)c3ccccc3n2)CC1', 80.4),
  ('CC(C)[C@@H]1CC[C@]2(CO2)[C@@H]2C(=O)OCC(C(=O)O)=C[C@H]21', -31.2),
  ('Cc1nc(Nc2n[nH]c3c2CN(C(=O)N[C@H](CN(C)C)c2ccccc2)C3(C)C)c2sccc2n1', -41.3),
  ('CN(C)CCOC(=O)Nc1nc2ccc(Sc3ccccc3)cc2[nH]1', 32.1);

Missing value: growth, LOX IMVI melanoma, entry N#CC(C#N)=NO . Fill in?
95.8

###

System: MALME-3M melanoma
Protocol description: NCI-60 one-dose screen, 48 h (100 = growth as untreated, 0 = no growth, -100 = all killed)
Experimental conditions: 10 µM unless noted
Compounds without any hit were thinned out: in the full panel of roughly 83,000, 20% have a hit.
Kindly apply the following: rule met if growth is less than 70%, rule not met in every other case.

Below 70% on growth? Entry CN(N)c1nc2sc3c(c2c(=O)[nH]1)CCCC3
rule not met

API: query returns whether the compound falls strictly under 70% in growth. Query: CN1CCC(COc2cnc(-c3cccc(Cn4nc(-c5cccc(C#N)c5)ccc4=O)c3)nc2)CC1
rule met

Hello, is growth of the following compound strictly smaller than 70%? COC1CCC(N2C(=O)CNc3ncc(-c4ccc(C(C)(C)O)nc4)nc32)CC1 (stereo not given)
rule met

Is the reported growth for CC1(C)NC(=O)c2[nH]c3c(Cl)c(Cl)ccc3c2C1C#N (stereo not given) strictly below 70%?
rule not met

Quick check: does Cc1nc(-c2cn3c(n2)-c2ccc(-c4cnn(C(C)(C)C(N)=O)c4)cc2OCC3)n(C(C)C)n1 have growth under 70%?
rule met

Consider CCS(=O)(=O)N1CCN(c2ccc(Nc3ncc(C(N)=O)c(NC4CC4)n3)cc2)CC1 . Does its growth lie strictly below 70%?
rule not met

Strictly below 70% in growth? COCCOc1cnc2ccn([C@H](C)c3nnc4c(F)cc(-c5cnn(C)c5)cn34)c(=O)c2c1
rule met

Please state whether growth is below 70% for CCc1nc(C(N)=O)c(Nc2ccc(N3CCC(N4CCN(C)CC4)CC3)c(OC)c2)nc1NC1CCOCC1
rule met

Does the reported growth of COc1ccc(OC)c(NC2=C(SCCc3ccccc3)C(=O)c3ccccc3C2=O)c1 stay below 70%?
rule not met

growth strictly < 70% for this compound? Cc1ccc(-[n+]2c3cc(N)c(C)cc3nc3cc(C)c(Nc4ccccc4)cc32)cc1
rule met

###

Tested on: HOP-92 NSCLC
Protocol description: NCI-60 one-dose screen, 48 h
Experimental conditions: 10 µM unless noted
Procedure: Growth inhibition of the HOP-92 human Non-Small Cell Lung tumor cell line is measured as a screen for anti-cancer activity. Cells are grown in 96 well plates and exposed to the test compound for 48 hours. Compounds are tested at a single concentration, which is 10^-5 M for most compounds. The reported endpoint is percent growth (GI% or GIPRCNT), where numbers from 0 - 100% represent growth inhibition, and numbers from -100% - 0 represent cell death. […]
The panel holds about 83,000 compounds, 20% with a hit somewhere; the sample as a whole holds those more often. Active and inactive are the calls of the source. The calls were made as follows: active = growth percent below 10; inactive = the rest.
Please reply with one of these outcomes: active, inactive

See these solved cases before continuing.
INSERT INTO assay_data (molecule, assigned_class) VALUES
  ('C[C@@H](Oc1cc(-n2cnc3ccc(CN4CCN(C)CC4)cc32)sc1C(N)=O)c1ccccc1C(F)(F)F', 'inactive'),
  ('C=CCN1C(=O)c2cccc3c(-c4ccc5c(c4)ncn5C4CCCCC4)ccc(c23)C1=O', 'inactive'),
  ('CC(=O)C1=C(C)NC(SCc2nnc(-c3ccc(C)cc3)o2)=NC1c1ccc(F)cc1 (stereo not given)', 'inactive'),
  ('COC1CCC(N2C(=O)CNc3ncc(-c4ccc(C(C)(C)O)nc4)nc32)CC1 (stereo not given)', 'active'),
  ('COC(=O)N[C@@H](C)CNc1nccc(-c2cn(C(C)C)nc2-c2cc(Cl)cc(NS(C)(=O)=O)c2F)n1', 'inactive'),
  ('Cc1ccc(Nc2nccc(N(C)c3ccc4c(C)n(C)nc4c3)n2)cc1S(N)(=O)=O', 'active'),
  ('CCCc1cc2cc(-n3nc(C)c4c3CC(C)(C)CC4=O)cc(NC3CCC(O)CC3)c2c(=O)[nH]1 (stereo not given)', 'active'),
  ('C=CCC(=O)N[C@H](/C=C/C(=O)O)Cc1ccc(-c2cc(Cl)cc(Cl)c2)cc1', 'inactive');

Kindly provide the recorded test outcome for the following molecule: CC(=O)C1CC(C)CCC1C(C)C (stereo not given)
inactive

Hello, I am checking results. What call was entered for COc1ccc(Cc2cc(-c3ccccc3C)n[nH]c2=O)cc1 ?
inactive

Hi team, can someone confirm the assay call for Cc1cc(C2(c3ccc(O)c(C)c3)OS(=O)(=O)c3ccccc32)ccc1O ?
inactive

Would you mind telling me which call this test gave O=C(Nc1ccc(Nc2ncnc3sc4c(c23)CCOC4)cc1)Nc1ccc(Cl)c(C(F)(F)F)c1 ?
inactive

Test call for this molecule, please: CC1(O)CCC2CC3OC3(C)CCC3OC3(C)C(O)CC1C2(C)C (stereo not given)
active

Lab log entry: NC(=O)c1n[nH]n2c1nc(=O)c1c3c(sc12)CCCC3 — outcome as called in the assay?
inactive

Identify the outcome logged in this assay for the molecule shown: COc1ccc(-c2nc(N)ncc2Oc2ccccc2OC)c(O)c1
inactive

In this assay, the call recorded for C[C@@H]1COC(Nc2ccc3ncnc(Nc4ccc(OCc5nccs5)c(Cl)c4)c3c2)=N1 was what?
inactive

What classification did COc1cc(CCc2cc(NC(=O)c3ccc(N4C[C@@H](C)N[C@@H](C)C4)cc3)n[nH]2)cc(OC)c1 end up with in this test?
inactive

// param item: COc1ccc(-c2nocc2-c2cc(OC)c(OC)c(OC)c2)cc1 ; yields the recorded call
inactive

How was COc1ccc(F)c(F)c1C(=O)c1cnc(NC2CCN(S(C)(=O)=O)CC2)nc1N classified in this test?
active

In this assay, the call recorded for C/C(=N\NC(=O)Cn1c(-c2ccc(S(C)(=O)=O)cc2)nc2ccccc21)c1ccc(Cl)cc1 was what?
inactive
